target: T1, AFP158/HLA-A*02:01 complex (human); experiment: SPR, KD ratio to AS170036 VL1VH1;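 further: crude scFv captured on a sensor chip, peptide–HLA complex passed over at several concentrations, association then buffer dissociation, KD derived from on- and off-rates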
T1 construct: flowed over the chip in SPR; also called AFP158 pro
Label met when Affinity increase is at or above 2 fold; otherwise label not met.

Please review the following examples before continuing.
| BINDER | LABEL |
| --- | --- |
| LH98L (scFv, AS170036 VL1VH1 scFv mutein) scFv: QSALTQPRSVSGSPGQSVTISCAGTSSDVGSENYVSWYQQHPGKAPKLMIYQVNKRASGVPDRFSGSKSGNTASLTISGLQAEDEADYYCASYRSSDLNIVFGGGTKLTVLGGGGSGGGGSGGGGSEVQLVESGGGLVQPGGSLRLSCAASGFTFSSYAMSWVRQAPGKGLEWVSTINSGTGSPYYADSVKGRFTISRDNSKNTLYLQMNSLRAEDTAVYYCAKNFFDGSWFLGPPAMDYWGQGTLVTVSSHHHHHH | not met |
| LH98Y (scFv, AS170036 VL1VH1 scFv mutein) scFv: QSALTQPRSVSGSPGQSVTISCAGTSSDVGSENYVSWYQQHPGKAPKLMIYQVNKRASGVPDRFSGSKSGNTASLTISGLQAEDEADYYCASYRSSDYNIVFGGGTKLTVLGGGGSGGGGSGGGGSEVQLVESGGGLVQPGGSLRLSCAASGFTFSSYAMSWVRQAPGKGLEWVSTINSGTGSPYYADSVKGRFTISRDNSKNTLYLQMNSLRAEDTAVYYCAKNFFDGSWFLGPPAMDYWGQGTLVTVSSHHHHHH | not met |
| LH98P (scFv, AS170036 VL1VH1 scFv mutein; also called AS170036 VL1VH1-VLH98P) scFv: QSALTQPRSVSGSPGQSVTISCAGTSSDVGSENYVSWYQQHPGKAPKLMIYQVNKRASGVPDRFSGSKSGNTASLTISGLQAEDEADYYCASYRSSDPNIVFGGGTKLTVLGGGGSGGGGSGGGGSEVQLVESGGGLVQPGGSLRLSCAASGFTFSSYAMSWVRQAPGKGLEWVSTINSGTGSPYYADSVKGRFTISRDNSKNTLYLQMNSLRAEDTAVYYCAKNFFDGSWFLGPPAMDYWGQGTLVTVSSHHHHHH | met |
| LH98Q (scFv, AS170036 VL1VH1 scFv mutein; also called AS170036 VL1VH1-VLH98Q) scFv: QSALTQPRSVSGSPGQSVTISCAGTSSDVGSENYVSWYQQHPGKAPKLMIYQVNKRASGVPDRFSGSKSGNTASLTISGLQAEDEADYYCASYRSSDQNIVFGGGTKLTVLGGGGSGGGGSGGGGSEVQLVESGGGLVQPGGSLRLSCAASGFTFSSYAMSWVRQAPGKGLEWVSTINSGTGSPYYADSVKGRFTISRDNSKNTLYLQMNSLRAEDTAVYYCAKNFFDGSWFLGPPAMDYWGQGTLVTVSSHHHHHH | met |
| LH98F (scFv, AS170036 VL1VH1 scFv mutein; also called AS170036 VL1VH1-VLH98F) scFv: QSALTQPRSVSGSPGQSVTISCAGTSSDVGSENYVSWYQQHPGKAPKLMIYQVNKRASGVPDRFSGSKSGNTASLTISGLQAEDEADYYCASYRSSDFNIVFGGGTKLTVLGGGGSGGGGSGGGGSEVQLVESGGGLVQPGGSLRLSCAASGFTFSSYAMSWVRQAPGKGLEWVSTINSGTGSPYYADSVKGRFTISRDNSKNTLYLQMNSLRAEDTAVYYCAKNFFDGSWFLGPPAMDYWGQGTLVTVSSHHHHHH | met |
| LE32S (scFv, AS170036 VL1VH1 scFv mutein) scFv: QSALTQPRSVSGSPGQSVTISCAGTSSDVGSSNYVSWYQQHPGKAPKLMIYQVNKRASGVPDRFSGSKSGNTASLTISGLQAEDEADYYCASYRSSDHNIVFGGGTKLTVLGGGGSGGGGSGGGGSEVQLVESGGGLVQPGGSLRLSCAASGFTFSSYAMSWVRQAPGKGLEWVSTINSGTGSPYYADSVKGRFTISRDNSKNTLYLQMNSLRAEDTAVYYCAKNFFDGSWFLGPPAMDYWGQGTLVTVSSHHHHHH | not met |
| LH98N (scFv, AS170036 VL1VH1 scFv mutein) scFv: QSALTQPRSVSGSPGQSVTISCAGTSSDVGSENYVSWYQQHPGKAPKLMIYQVNKRASGVPDRFSGSKSGNTASLTISGLQAEDEADYYCASYRSSDNNIVFGGGTKLTVLGGGGSGGGGSGGGGSEVQLVESGGGLVQPGGSLRLSCAASGFTFSSYAMSWVRQAPGKGLEWVSTINSGTGSPYYADSVKGRFTISRDNSKNTLYLQMNSLRAEDTAVYYCAKNFFDGSWFLGPPAMDYWGQGTLVTVSSHHHHHH | not met |
| LH98G (scFv, AS170036 VL1VH1 scFv mutein) scFv: QSALTQPRSVSGSPGQSVTISCAGTSSDVGSENYVSWYQQHPGKAPKLMIYQVNKRASGVPDRFSGSKSGNTASLTISGLQAEDEADYYCASYRSSDGNIVFGGGTKLTVLGGGGSGGGGSGGGGSEVQLVESGGGLVQPGGSLRLSCAASGFTFSSYAMSWVRQAPGKGLEWVSTINSGTGSPYYADSVKGRFTISRDNSKNTLYLQMNSLRAEDTAVYYCAKNFFDGSWFLGPPAMDYWGQGTLVTVSSHHHHHH | not met |

Let's switch to this binder now.
Q: Is Affinity increase for LE32W (scFv, AS170036 VL1VH1 scFv mutein; also called AS170036 VL1VH1-VLE32W) scFv: QSALTQPRSVSGSPGQSVTISCAGTSSDVGSWNYVSWYQQHPGKAPKLMIYQVNKRASGVPDRFSGSKSGNTASLTISGLQAEDEADYYCASYRSSDHNIVFGGGTKLTVLGGGGSGGGGSGGGGSEVQLVESGGGLVQPGGSLRLSCAASGFTFSSYAMSWVRQAPGKGLEWVSTINSGTGSPYYADSVKGRFTISRDNSKNTLYLQMNSLRAEDTAVYYCAKNFFDGSWFLGPPAMDYWGQGTLVTVSSHHHHHH at or above 2 fold?
A: met

Hello, the source for this data is patent US20240279318A1, in case you need it.
